From: patent US12077503B2

System: Galium (catchweed bedstraw, Galium aparine)
assay_summary: Test A postemergence
Type: in vivo
assay_context: Galium, post-emergence, 240 h, 125 g ai/ha, postemergence; visual injury after approximately 10 d; 0 to 100 scale (0 no effect, 100 complete control); read-out: Plant response rating, Galium
result_type: pest or weed control at 125 g/ha (%)
Numbers only, in %.

Hey, can you go through the list below and give me pest or weed control at 125 g/ha for every item?
1. CN1C[C@H](c2cccc([N+](=O)[O-])c2)[C@@H](C(=O)Nc2cccc(F)c2F)C1=O (racemic)
2. C/C=C/C1CNC(=O)C1C(=O)Nc1cccc(F)c1F (stereo not shown)
3. COc1cc([C@H]2CN(C)C(=O)[C@@H]2C(=O)Nc2cccc(F)c2F)ccc1C(F)(F)F

Output:
1. 20
2. 0
3. 60

Task: Query (compound): "Cc1cc([C@H]2CN(C)C(=O)[C@@H]2C(=O)Nc2ccc(F)c(F)c2F)ccc1F" ; field requested: pest or weed control at 125 g/ha
Output: 60

====

Test system: barnyardgrass (Echinochloa crus-galli)
assay_summary: Test A postemergence
Format: in vivo
assay_context: Echinochloa crus-galli, post-emergence, 240 h, Postemergence, 31 g ai/ha; visual injury after approx. 10 d; 0 to 100 scale, 0 no effect, 100 complete control; read-out: Plant response rating, Barnyardgrass
result_type: pest or weed control at 31 g/ha (%)
Numbers only, in %.

Worked set:
- smiles_str: "CN1C[C@H](c2ccc(Cl)cc2)[C@@H](C(=O)Nc2ccc(F)c(F)c2F)C1=O"
  unit_text: "%"
  pest or weed control at 31 g/ha: 90
- smiles_str: "CN1CC[C@@H](c2cccc(C(F)(F)F)c2)[C@H](C(=O)Nc2ccccc2F)C1=O"
  unit_text: "%"
  pest or weed control at 31 g/ha: 0
- smiles_str: "CN1CC[C@H](c2cccc(OC(F)(F)F)c2)[C@@H](C(=O)Nc2cccc(Cl)c2F)C1=O"
  unit_text: "%"
  pest or weed control at 31 g/ha: 40

The record that follows has no pest or weed control at 31 g/ha shown yet.
Task: Query (compound): "CN1C[C@H](c2ccc(C(F)F)cc2)[C@@H](C(=O)Nc2ccccc2F)C1=O" ; field requested: pest or weed control at 31 g/ha
Output: 80

====

System: barnyardgrass (Echinochloa crus-galli)
assay_summary: Test A preemergence
Format: in vivo
assay_context: Echinochloa crus-galli, pre-emergence, 240 h, 125 g ai/ha, preemergence; 0 to 100 scale where 0 is no effect and 100 is complete control; approx. 10 d; read-out: Barnyardgrass plant response rating
result_type: pest or weed control at 125 g/ha (%)
One number for each entry, in %.

- molecule: "O=C1NC[C@H](c2cc(C(F)F)cs2)[C@H]1C(=O)Nc1cccc(F)c1F [Compound 1117]"
  study_target: "barnyardgrass (Echinochloa crus-galli)"
  unit_text: "%"
  numeric_readout: 90

Hey, can you go through the list below and give me pest or weed control at 125 g/ha for every item?
1. C=C(C)c1ccc([C@H]2CN(C)C(=O)[C@@H]2C(=O)Nc2cccc(F)c2C)cc1 [Compound 1150]
2. CCc1cc(CC)cc([C@H]2CNC(=O)[C@@H]2C(=O)Nc2ccccc2F)c1 [Compound 1138]
3. O=C1NC[C@H](c2ccc(C(F)(F)F)cn2)[C@H]1C(=O)Nc1ccc(F)c(F)c1F [Compound 1105]
4. CN1C[C@H](c2cc(F)cc(F)c2)[C@@H](C(=O)Nc2ncccc2Cl)C1=O [Compound 1097]
5. CN1C[C@H](c2cc(C(F)F)cs2)[C@@H](C(=O)Nc2ccccc2S(C)(=O)=O)C1=O [Compound 1084]
6. CCc1cc([C@H]2CN(C)C(=O)[C@@H]2C(=O)Nc2ccccc2F)cs1 [Compound 1156]
7. CN1C[C@H](c2cc(C(F)F)cs2)[C@@H](C(=O)Nc2ccc(F)c(F)c2F)C1=O [Compound 1083]

Output:
70
90
60
0
70
90
100

Hey, can you go through the list below and give me pest or weed control at 125 g/ha for every item?
1. Cc1c(F)cccc1NC(=O)[C@H]1C(=O)N(C)C[C@@H]1c1cc(C(F)F)cs1 [Compound 1089]
2. Cc1cc([C@H]2CN(C)C(=O)[C@@H]2C(=O)Nc2cccc(F)c2F)ccc1Br [Compound 1099]

Output:
[90, 90]

Hey, can you go through the list below and give me pest or weed control at 125 g/ha for every item?
1. CCc1ccc([C@H]2CNC(=O)[C@@H]2C(=O)Nc2ccccc2SC)cc1 [Compound 1178]
2. CC(C)Oc1ccc([C@H]2CNC(=O)[C@@H]2C(=O)Nc2cccc(F)c2F)cc1 [Compound 1136]
3. CN1C[C@H](c2cc(C(F)F)cs2)[C@@H](C(=O)Nc2cccc(C#N)c2F)C1=O [Compound 1093]

Output:
[20, 30, 90]

====

System: waterhemp (common waterhemp, Amaranthus rudis)
assay_summary: Test C preemergence
Format: in vivo
assay_context: 125 g ai/ha, scale 0 to 100, 0 no effect, 100 complete control
result_type: Plant response rating, Waterhemp
One number for each entry.

Hey, can you go through the list below and give me Plant response rating, Waterhemp for every item?
1. CN1CC(c2ccc(F)c(C(F)(F)F)c2)C(C(=O)Nc2cccc(F)c2F)C1=O (centres unmarked)
2. Cc1ccc(C2CN(C)C(=O)C2C(=O)Nc2cccc(F)c2F)cc1F (centres unmarked)
3. CN1C[C@H](c2ccc(F)c(F)c2)[C@@H](C(=O)Nc2cccc(F)c2F)C1=O
4. Cc1ccc(C2CN(C)C(=O)C2C(=O)Nc2cccc(F)c2F)cc1 (centres unmarked)
5. CN1CC(c2cccc(OC(F)(F)C(F)F)c2)C(C(=O)Nc2ccc(F)cc2F)C1=O (centres unmarked)

Output:
[85, 80, 75, 85, 85]

====

System: blackgrass (Alopecurus myosuroides)
assay_summary: Test A postemergence
Assay type: in vivo
assay_context: Postemergence, 500 g ai/ha; 0 to 100 scale where 0 is no effect and 100 is complete control
result_type: Plant response rating, Blackgrass

- compound: "CN1CC(c2cccc(OC(F)F)c2)C(C(=O)Nc2ccccc2F)C1=O (centres unmarked) [Compound 618]"
  result: 60

Hey, can you go through the list below and give me Plant response rating, Blackgrass for every item?
1. CC(C)Oc1cccc(C2CNC(=O)C2C(=O)Nc2ccccc2F)c1 (centres unmarked) [Compound 552]
2. CN1CC(c2cccc(C(F)(F)F)c2)C(C(=O)Nc2cccc(F)c2F)C1=O (centres unmarked) [Compound 636]
3. O=C1NCC(c2cc(F)cc(Cl)c2)C1C(=O)Nc1cccc(F)c1F (centres unmarked) [Compound 492]
4. O=C1NCC(c2ccc(Oc3ccccc3)cc2)C1C(=O)Nc1ccccc1Cl (racemic) [Compound 538]
5. O=C1NCC(c2ccnc(C(F)(F)F)c2)C1C(=O)Nc1cccc(F)c1F (racemic) [Compound 514]
6. CN1CC(c2ccc(C(F)(F)F)cc2)C(C(=O)Nc2ccc(F)cc2F)C1=O (centres unmarked) [Compound 625]

Output:
1. 70
2. 60
3. 70
4. 0
5. 50
6. 40

Task: Query (compound): CN1CC(c2cccc(C(F)(F)F)c2)C(C(=O)Nc2cccc(Cl)c2F)C1=O (centres unmarked) [Compound 574] ; field requested: Plant response rating, Blackgrass
Output: 70

====

System: velvetleaf (Abutilon theophrasti)
assay_summary: Test G Post-Emergence Protocol
Format: in vivo
assay_context: Abutilon theophrasti, post-emergence, 312 h, 62.5 g ai/ha, evaluated after 13 days, 100=total damage to plant, 0=no damage to plant, read-out: Velvetleaf damage rating
Could you please report measured pest or weed control at 62.5 g/ha for the items listed next?
Numbers only, in %.

- compound: "Cc1nc(F)ccc1NC(=O)[C@@H]1C(=O)N(C)C[C@H]1c1ccc(C(F)(F)F)cc1 (racemic)"
  study_target: "velvetleaf (Abutilon theophrasti)"
  result_type: "pest or weed control at 62.5 g/ha"
  numeric_readout: 20
- compound: "CN1C[C@H](c2ccc(C(F)(F)F)cc2)[C@@H](C(=O)Nc2cccc3c2S(=O)(=O)CC3)C1=O (racemic)"
  study_target: "velvetleaf (Abutilon theophrasti)"
  result_type: "pest or weed control at 62.5 g/ha"
  numeric_readout: 0
- compound: "CN1C[C@H](c2cccc(C(F)F)c2)[C@@H](C(=O)Nc2cnccc2C(F)(F)F)C1=O (racemic)"
  study_target: "velvetleaf (Abutilon theophrasti)"
  result_type: "pest or weed control at 62.5 g/ha"
  numeric_readout: 10
- compound: "CN1C[C@H](c2cc(Cl)cc(C(F)(F)F)c2)[C@@H](C(=O)Nc2ccccc2S(C)(=O)=O)C1=O (racemic)"
  study_target: "velvetleaf (Abutilon theophrasti)"
  result_type: "pest or weed control at 62.5 g/ha"
  numeric_readout: 80
- compound: "CN1C[C@H](c2cccc(C(C)(C)C#N)c2)[C@@H](C(=O)Nc2ccccc2S(C)(=O)=O)C1=O (racemic)"
  study_target: "velvetleaf (Abutilon theophrasti)"
  result_type: "pest or weed control at 62.5 g/ha"
  numeric_readout: 0
- compound: "CN1C[C@H](c2cccc(C(F)(F)F)c2)[C@@H](C(=O)Nc2ccc(O)cc2F)C1=O (racemic)"
  study_target: "velvetleaf (Abutilon theophrasti)"
  result_type: "pest or weed control at 62.5 g/ha"
  numeric_readout: 0
- compound: "COc1cc(C2CN(C)C(=O)C2C(=O)Nc2cccc(F)c2F)cc(Cl)c1OC (stereo not drawn)"
  study_target: "velvetleaf (Abutilon theophrasti)"
  result_type: "pest or weed control at 62.5 g/ha"
  numeric_readout: 0
- compound: "Cc1cc(C2CN(C)C(=O)C2C(=O)Nc2cccc(F)c2F)cc(C)c1F (stereo not drawn)"
  study_target: "velvetleaf (Abutilon theophrasti)"
  result_type: "pest or weed control at 62.5 g/ha"
  numeric_readout: 10

The record that follows has no pest or weed control at 62.5 g/ha shown yet.
Task: Query (compound): Cc1cc(C)cc([C@H]2CN(C)C(=O)[C@@H]2C(=O)Nc2ccccc2S(C)(=O)=O)c1 (racemic) ; field requested: pest or weed control at 62.5 g/ha
Output: 0
